Origin of values: the supplement of paper PMC8728848

Answer each item with its documented glycan array binding signal (z-score).
target: Fuc(a1-2)[GalNAc(a1-3)]Gal(b1-4)GlcNAc(b1-6)GalNAc; test: glycan array binding signal (z-score within array); higher = stronger binding; details: glycan notation: IUPAC condensed, linker removed
This excerpt belongs to a sample that is enriched for the strongest signals.

So what does the record say about glycan array binding signal (z-score) for RobpsCRA (Robinia pseudoacacia) (protein) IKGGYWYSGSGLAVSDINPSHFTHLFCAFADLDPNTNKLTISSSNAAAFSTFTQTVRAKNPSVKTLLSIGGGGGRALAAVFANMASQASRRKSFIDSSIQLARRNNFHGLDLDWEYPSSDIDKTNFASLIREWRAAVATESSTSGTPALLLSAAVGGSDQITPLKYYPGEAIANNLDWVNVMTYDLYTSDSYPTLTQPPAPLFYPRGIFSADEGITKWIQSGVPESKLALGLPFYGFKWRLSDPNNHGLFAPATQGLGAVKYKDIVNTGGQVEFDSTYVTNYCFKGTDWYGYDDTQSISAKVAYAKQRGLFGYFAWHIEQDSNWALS ?
-0.132

So what does the record say about glycan array binding signal (z-score) for Actd5 (Actinidia), P84527 (protein) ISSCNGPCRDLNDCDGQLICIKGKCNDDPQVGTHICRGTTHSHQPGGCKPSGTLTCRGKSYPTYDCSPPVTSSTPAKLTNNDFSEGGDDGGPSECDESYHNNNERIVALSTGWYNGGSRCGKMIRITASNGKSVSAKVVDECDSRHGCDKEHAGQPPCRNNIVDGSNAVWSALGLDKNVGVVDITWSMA ?
-0.865

So what does the record say about glycan array binding signal (z-score) for MGL1 (Mus musculus), P49300 (protein) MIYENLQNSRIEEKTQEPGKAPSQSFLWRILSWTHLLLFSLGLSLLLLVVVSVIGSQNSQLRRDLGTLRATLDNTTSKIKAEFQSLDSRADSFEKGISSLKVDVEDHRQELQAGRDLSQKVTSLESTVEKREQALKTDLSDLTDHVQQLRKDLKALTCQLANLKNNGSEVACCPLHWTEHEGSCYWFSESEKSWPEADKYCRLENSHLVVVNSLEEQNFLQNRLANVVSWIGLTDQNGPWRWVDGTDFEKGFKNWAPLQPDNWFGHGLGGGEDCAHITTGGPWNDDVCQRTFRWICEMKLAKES ?
0.044

So what does the record say about glycan array binding signal (z-score) for LgFlo1 (Saccharomyces pastorianus), B3IUA8 (protein) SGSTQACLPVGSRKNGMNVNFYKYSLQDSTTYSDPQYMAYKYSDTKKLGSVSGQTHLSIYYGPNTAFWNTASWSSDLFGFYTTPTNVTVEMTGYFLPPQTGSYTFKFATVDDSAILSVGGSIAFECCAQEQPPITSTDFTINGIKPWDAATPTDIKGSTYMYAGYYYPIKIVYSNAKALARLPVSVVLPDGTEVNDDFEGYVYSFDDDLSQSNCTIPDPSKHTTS ?
-0.114

So what does the record say about glycan array binding signal (z-score) for AT1G15820(NC) (Arabidopsis thaliana) (protein) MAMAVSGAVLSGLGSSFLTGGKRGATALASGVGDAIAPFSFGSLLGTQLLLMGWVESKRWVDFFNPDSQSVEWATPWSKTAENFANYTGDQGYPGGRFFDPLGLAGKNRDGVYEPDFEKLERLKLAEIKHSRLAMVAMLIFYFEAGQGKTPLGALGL ?
-0.49
